Record form. Attribute: Plant response rating, Rice (0 to 100 scale, 0 is no effect, 100 is complete control). Fill in for each entry.
# Test system: rice (Oryza sativa)
# assay overview: Test B flooded paddy: rice
# Assay type: in vivo
# particulars: Flood; 250 g ai/ha; applied to paddy water at 2-leaf stage; visually evaluated after 13 to 15 days
Please state the value as a number alone, without comment.

What is its Plant response rating, Rice (0 to 100 scale, 0 is no effect, 100 is complete control) for rice (Oryza sativa)? Entry: COc1nn(-c2ccc(C(F)(F)F)cc2)nc1Cc1ccnc(C(F)F)c1 50

And Cc1nn(-c2ccc(F)cc2F)nc1Oc1ccnc(C(F)(F)F)c1 ? 35

For Cc1nn(-c2ccc(F)c(F)c2)nc1Cc1ccnc(C(F)(F)F)c1 then? 60

Record: CON=C(c1cccc(C(F)(F)F)c1)c1nn(-c2ccnc(C(F)(F)F)c2)nc1C 0

Now give it for Cc1nn(-c2ccc(Br)cc2)nc1Oc1ccnc(C(F)(F)F)c1 too. 50

Repeat for the following molecule: CC(C)Oc1nn(-c2ccc(C(F)(F)F)cc2)nc1Cc1ccnc(C(F)(F)F)c1 0

Try Cc1nn(-c2ccc(F)cc2)nc1Cc1cccc(C(F)(F)F)c1 next. 0

CC(=O)Oc1nn(-c2ccc(C(F)(F)F)cc2)nc1Cc1ccnc(C(F)(F)F)c1 ? 0

====

# Tested on: goosegrass (Eleusine indica)
# assay overview: Test C pre-/postemergence: goosegrass
# Format: in vivo
# particulars: Postemergence, 250 g ai/ha; scale 0 to 100
Field: Plant response rating, Goosegrass. Provide a value for each of the compounds that follow.
Give the figure by itself; no unit, no explanation.

Look at this compound and give its reported Plant response rating, Goosegrass. Cc1nn(-c2ccnc(Cl)c2)nc1Cc1ccnc(C(F)(F)F)c1 60

Would you mind doing Cc1nn(-c2ccc(C(F)(F)F)cn2)nc1Cc1cccc(C(F)(F)F)c1 as well? 55

# repeat for FC(F)(F)COc1nn(-c2ccc(C(F)(F)F)cc2)nc1Cc1ccnc(C(F)(F)F)c1 75

Same for FC(F)(F)c1ccc(-n2nc(Cl)c(Cc3ccnc(C(F)(F)F)c3)n2)cc1 45

====

# Tested on: large crabgrass (Digitaria sanguinalis)
# assay overview: Test C pre-/postemergence: large crabgrass
# Type: in vivo
# particulars: Postemergence, 31 g ai/ha; scale 0 to 100 (0 no effect, 100 complete control)
# Source text: […] Treated plants and controls were maintained in a greenhouse for 13 to 15 days, after which time all species were compared to controls and visually evaluated. […]
property name: Plant response rating, Crabgrass, Large
Output: the number by itself.

What measured Plant response rating, Crabgrass, Large is associated with Cc1nn(-c2ccc(F)c(C(F)(F)F)c2)nc1Cc1ccnc(C(F)(F)F)c1 on large crabgrass (Digitaria sanguinalis)? 10

Queued: CCc1nn(-c2ccc(C(F)(F)F)c(F)c2)nc1Oc1ccnc(C(F)(F)F)c1 25

Check FC(F)(F)COc1nn(-c2ccc(C(F)(F)F)cc2)nc1Cc1ccnc(C(F)(F)F)c1 too. 10

CCCc1nn(-c2ccc(F)c(F)c2)nc1Oc1ccnc(C(F)(F)F)c1 ? 20

Queued: CCCc1nn(-c2ccc(C(F)(F)F)cc2)nc1Oc1ccnc(C(F)(F)F)c1 30

====

# Test system: oat, wild (wild oat, Avena fatua)
# assay overview: Test D pre-/postemergence: oat, wild
# Format: in vivo
# particulars: Postemergence, 62 g ai/ha; scale 0 to 100 (0 no effect, 100 complete control)
property name: Plant response rating: Oat, Wild

May I ask what Plant response rating: Oat, Wild has been recorded for COc1nn(-c2ccc(C(F)(F)F)cc2)nc1Cc1ccnc(C(F)F)c1 ? 30

Entry Cc1nn(-c2ccc(C(F)(F)F)cn2)nc1Cc1cccc(C(F)(F)F)c1 please 5

Quick one: Cc1nn(-c2ccc(C(F)(F)F)cc2)nc1Oc1ccnc(C(F)(F)F)c1 20

Field entry: FC(F)(F)COc1nn(-c2ccc(C(F)(F)F)cc2)nc1Cc1ccnc(C(F)(F)F)c1 25

====

# Tested on: foxtail, giant (giant foxtail, Setaria faberii)
# assay overview: Test C pre-/postemergence: foxtail, giant
# Type: in vivo
# particulars: Preemergence, 31 g ai/ha; scale 0 (no effect) to 100 (complete control)
property name: Plant response rating, Foxtail, Giant
// no unit string in output, number only

Field request: Plant response rating, Foxtail, Giant | item: CCc1nn(-c2ccc(C(F)(F)F)c(F)c2)nc1Oc1ccnc(C(F)(F)F)c1 [Compound 183] 100

Queued: CCCc1nn(-c2ccc(F)c(F)c2)nc1Oc1ccnc(C(F)(F)F)c1 [Compound 172] 100

Okay, and CCc1nn(-c2ccc(C(F)(F)F)cc2)nc1Oc1ccnc(C(F)(F)F)c1 [Compound 169] ? 100

Next compound: CCOc1nn(-c2ccc(F)cc2)nc1Cc1ccnc(C(F)(F)F)c1 [Compound 196] 100

====

# Tested on: chickweed (common chickweed, Stellaria media)
# assay overview: Test C postemergence: chickweed
# Type: in vivo
# particulars: 31 g ai/ha, scale 0 to 100 (0 no effect, 100 complete control)
property name: Plant response rating, Chickweed
Just the number, please.

May I ask what Plant response rating, Chickweed has been recorded for CCc1nn(-c2ccc(F)c(F)c2)nc1Oc1ccnc(C(F)(F)F)c1 [Compound 171] ? 50

Similarly, COc1nn(-c2ccc(C(F)(F)F)cc2)nc1Cc1ccnc(C(F)(F)F)c1 [Compound 15] ? 55

Then CCc1nn(-c2ccc(C(F)(F)F)cc2)nc1Cc1ccnc(C(F)(F)F)c1 [Compound 155] ? 50

Here is the next molecule: FCc1nn(-c2ccc(F)cc2)nc1Oc1ccnc(C(F)(F)F)c1 [Compound 160] 90

Another molecule: COc1nn(-c2cccc(F)c2)nc1Cc1ccnc(C(F)(F)F)c1 [Compound 139] 75

====

I'd be grateful if you could share measured Morningglory plant response rating for these entries.
# Test system: morningglory (Ipomoea spp.)
# assay overview: Test A pre-/postemergence: morningglory
# Assay type: in vivo
# particulars: Postemergence, 500 g ai/ha; 0 to 100 scale, 0 is no effect, 100 is complete control
Simply state the number, no unit and no words.

Requested read-out: Morningglory plant response rating. Entry: CCCc1nn(-c2ccc(F)c(F)c2)nc1Oc1ccnc(C(F)(F)F)c1 [Compound 172] 100

Entry to check: CCCc1nn(-c2ccc(C(F)(F)F)cc2)nc1Oc1ccnc(C(F)(F)F)c1 [Compound 170] 100

Now try CCOc1nn(-c2ccc(F)cc2)nc1C(=O)c1ccnc(C(F)(F)F)c1 [Compound 177] . 100

CCCCOc1nn(-c2ccc(C(F)(F)F)cc2)nc1Cc1ccnc(C(F)(F)F)c1 [Compound 194] , same question. 30

Now try CCc1nn(-c2ccc(F)c(F)c2)nc1Oc1ccnc(C(F)(F)F)c1 [Compound 171] . 100

Now give it for CC(C)COc1nn(-c2ccc(C(F)(F)F)cc2)nc1Cc1ccnc(C(F)(F)F)c1 [Compound 193] too. 40

Here is the next compound: CCOc1nn(-c2ccc(F)cc2F)nc1Cc1ccnc(C(F)(F)F)c1 [Compound 190] 100

Field entry: Oc1nn(-c2ccc(C(F)(F)F)cc2)nc1Cc1ccnc(C(F)(F)F)c1 [Compound 198] 20

====

# Tested on: wheat (Triticum aestivum)
# assay overview: Test A pre-/postemergence: wheat
# Type: in vivo
# particulars: Postemergence, 1000 g ai/ha; visual rating on 0 to 100 scale (0 no effect, 100 complete control), approximately ten days
Kindly supply the reported Wheat plant response rating values for the records listed here.
Reply briefly: the number, and no unit.

Recorded Wheat plant response rating of Cc1nn(-c2ccc(C(F)(F)F)cn2)nc1Oc1cccc(C(F)(F)F)c1 , please. 50

What about this compound? Cc1nn(-c2ccc(F)cc2)nc1C(=O)c1ccnc(C(F)(F)F)c1 40

Input Cc1nn(-c2ccc(F)cc2)nc1Cn1cnc(C(F)(F)F)n1 30

Try CCc1nn(-c2ccc(C(F)(F)F)cc2)nc1Cn1cnc(C(F)(F)F)n1 next. 30

Also need Cc1nn(-c2ccc(C(F)(F)F)cc2)nc1Cn1cnc(C(F)(F)F)n1 , thanks. 30

====

# Tested on: barley (winter barley, Hordeum vulgare)
# assay overview: Test C postemergence: barley
# Type: in vivo
# particulars: 250 g ai/ha, scale 0 to 100
property name: Plant response rating, Barley
// print number alone

Given FC(F)(F)COc1nn(-c2ccc(C(F)(F)F)cc2)nc1Cc1ccnc(C(F)(F)F)c1 , state its recorded Plant response rating, Barley. 50

What do you get for FC(F)(F)c1ccc(-n2nc(Cl)c(Cc3ccnc(C(F)(F)F)c3)n2)cc1 ? 35

Param item: Cc1nn(-c2ccnc(Cl)c2)nc1Cc1ccnc(C(F)(F)F)c1 30

What about this compound? Cc1nn(-c2ccc(C(F)(F)F)cn2)nc1Cc1cccc(C(F)(F)F)c1 40

What do we get for COc1nn(-c2cccc(F)c2)nc1Cc1ccnc(C(F)(F)F)c1 ? 40
